Data credit: ChEMBL document CHEMBL1201862

Listed next: entries and their corresponding IC50.
Molecular target: Polyadenylate-binding protein 1 (Homo sapiens, UniProt P11940)
Sequence (P11940 whole entry): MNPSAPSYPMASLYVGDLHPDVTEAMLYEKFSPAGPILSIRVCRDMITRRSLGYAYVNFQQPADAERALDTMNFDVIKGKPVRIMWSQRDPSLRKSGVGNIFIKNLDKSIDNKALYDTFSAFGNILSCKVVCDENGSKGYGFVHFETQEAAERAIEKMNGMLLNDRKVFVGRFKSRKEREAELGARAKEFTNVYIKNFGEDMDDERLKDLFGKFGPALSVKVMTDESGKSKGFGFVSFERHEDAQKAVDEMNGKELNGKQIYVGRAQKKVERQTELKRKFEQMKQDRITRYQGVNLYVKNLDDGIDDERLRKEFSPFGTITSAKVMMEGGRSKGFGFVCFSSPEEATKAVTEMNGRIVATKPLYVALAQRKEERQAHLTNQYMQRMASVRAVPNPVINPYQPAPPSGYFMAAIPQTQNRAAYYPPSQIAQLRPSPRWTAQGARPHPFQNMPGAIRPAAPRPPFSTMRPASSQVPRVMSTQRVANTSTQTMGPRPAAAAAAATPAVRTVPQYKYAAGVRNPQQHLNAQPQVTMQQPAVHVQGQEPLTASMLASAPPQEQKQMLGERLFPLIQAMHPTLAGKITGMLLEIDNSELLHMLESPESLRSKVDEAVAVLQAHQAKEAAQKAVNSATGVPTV
Experiment: MLLE binding blockers, Cy5 peptide tracer – biochemical, fluorescence polarization, Cy5-PAM2 peptide, secondary, miRNA deadenylation inhibitor project, dose response (AID 602260)
Assay type: functional
Settings: read-out: IC50_Mean
Activity calls are given as the source filed them. No rule for the calls is given here.

{"columns": ["COMPOUND SMILES", "IC50"],
 "data": [
  ["Cc1cc(C)c[n+](-c2[n-]c(=O)sc2C=NNC(=O)c2cccnc2)c1", "> 66 µM (inactive)"],
  ["CCC(=O)Nc1ccc(Cl)c(NC(=S)NC(=O)COc2ccccc2)c1", "> 66 µM (inactive)"],
  ["CN(Cc1ccccc1)S(=O)(=O)c1ccc(NC(=S)NC(=O)C(C)(C)C)cc1", "> 66 µM (inactive)"],
  ["C=CCSc1nc2c(c(=O)[nH]c(=O)n2C)n1C(C)C", "> 66 µM (inactive)"],
  ["S=C(Nc1ccc(Nc2ccccc2)cc1)Nc1ccccn1", "> 66 µM (inactive)"],
  ["CCOC(=O)[C@H]1[C@H]2COc3ccc(Br)cc3[C@H]2N2C(=O)CN(Cc3ccc(C)cc3)C(=O)[C@@]12C", "> 66 µM (inactive)"]
]}
